The measured values listed here are drawn from patent US10934303B2.

systemName: GST-bound ER alpha ligand-binding domain (LBD) (Homo sapiens (Human), UniProt P03372)
Sequence (P03372 whole entry, looked up, the tested form may be a part): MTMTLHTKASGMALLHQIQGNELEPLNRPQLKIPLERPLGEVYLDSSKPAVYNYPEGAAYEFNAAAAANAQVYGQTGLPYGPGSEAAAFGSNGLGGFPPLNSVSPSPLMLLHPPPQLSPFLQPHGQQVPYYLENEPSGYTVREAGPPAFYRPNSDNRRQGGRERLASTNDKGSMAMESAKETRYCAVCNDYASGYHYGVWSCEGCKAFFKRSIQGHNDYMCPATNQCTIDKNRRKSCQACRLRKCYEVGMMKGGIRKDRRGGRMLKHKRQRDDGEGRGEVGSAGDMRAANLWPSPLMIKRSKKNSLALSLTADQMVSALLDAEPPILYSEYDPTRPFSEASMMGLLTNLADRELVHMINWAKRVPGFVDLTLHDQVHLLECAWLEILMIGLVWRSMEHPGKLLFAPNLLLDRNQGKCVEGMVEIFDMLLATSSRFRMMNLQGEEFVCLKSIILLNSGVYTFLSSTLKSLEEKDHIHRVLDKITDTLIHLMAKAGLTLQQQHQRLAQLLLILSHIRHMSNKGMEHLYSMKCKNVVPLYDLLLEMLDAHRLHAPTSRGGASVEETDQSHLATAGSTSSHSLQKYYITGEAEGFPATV
assaySummary: biochemical
assayConditions: TR-FRET, beta-estradiol 4 nM as agonist; read-out: Binding Assay, IC50 ERα
Below, each of the molecules is paired with its reported pIC50 value.
pIC50 is a log-scale quantity: -log10 of the concentration expressed in molar.

Use these answered entries as a reference point.
OCCC/C(=C(\c1ccc(O)cc1)c1ccc(OCCN2C[C@H]3C[C@H]3[C@H]2CO)cc1)c1ccccc1 [Compound 38d]	6.56
OCCC/C(=C(\c1ccc(O)cc1)c1ccc(N2CCN(C3CCC3)CC2)cc1)c1ccccc1 [Compound 22q]	5.78
OCCC/C(=C(\c1ccc(O)cc1)c1ccc(OCCN2CCCC2)cc1)c1ccccc1	6.39
CN1CCCC1CCOc1ccc(/C(=C(/CCCO)c2ccccc2)c2ccc(O)cc2)cc1 (stereo not shown)	6.48
CC(C)N1CCC(c2ccc(/C(=C(/CCCO)c3ccccc3)c3ccc(O)cc3)cc2)CC1 [Compound 22g]	5.36

Entry OCCC/C(=C(\c1ccc(O)cc1)c1ccc(OCCN2CCC[C@@H]2CO)cc1)c1ccccc1 [Compound 38c] — recorded pIC50 = 6.39

====

assaySummary: in vivo
Format: in vivo
assayConditions: in vivo; rat, IV, 1 mg/kg
measurementLabel: half-life (h)
Value expressed in h; do not type the unit.

Item: CN(C)CCOc1ccc(/C(=C(/CCCO)c2ccccc2)c2ccc(O)cc2)cc1 [GSK5182, reference compound] | half-life: 2.3

====

assaySummary: in vivo
Type: in vivo
assayConditions: rat, IV, 1 mg/kg
measurementLabel: Vss
Remember to quote the unit after the number.

CC(C)N1CCC(c2ccc(/C(=C(/CCCO)c3ccccc3)c3ccc(O)cc3)cc2)C1 (racemic) [Compound 22s]	13.2 L/kg

Just so you know, measured Vss for CCN1CCN(c2ccc(/C(=C(/CCCO)c3ccccc3)c3ccc(C)cc3)cc2)CC1 [Compound 18j] came out at 9.8 L/kg

Recorded result, OCCC/C(=C(\c1ccc(O)cc1)c1ccc(C2CCN(C3CC3)CC2)cc1)c1ccccc1 [Compound 22i] , Vss: 11.7 L/kg

====

assaySummary: in vivo
Format: in vivo
assayConditions: rat, IV, 1 mg/kg
Could you please mark y for values of t1/2 below 2 h and n for values at or above it?

The following compounds have reported results that may help.
OCCC/C(=C(\c1ccc(O)cc1)c1ccc(C2CCN(C3CC3)CC2)cc1)c1ccccc1 [Compound 22i]	n
CC(C)N1CCN(c2ccc(C(=C(CCCO)c3ccccc3)c3ccc(O)cc3)cc2)CC1 [Compound 18a]	n
CC(C)N1CCC(c2ccc(/C(=C(/CCCO)c3ccccc3)c3cccc(O)c3)cc2)CC1 [Compound 22m]	n

INPUT: State whether 2 h exceeds t1/2 recorded for CC(C)N1CCC(c2ccc(/C(=C(/CCCO)c3ccccc3)c3ccc(O)cc3)cc2)C1 (racemic) [Compound 22s] .
OUTPUT: n

INPUT: Would you kindly verify if t1/2 of CC(C)N1CCN(c2ccc(/C(=C(/CCCO)c3ccccc3)c3ccc(Br)cc3)cc2)CC1 [Compound 18e] is strictly less than 2 h?
OUTPUT: y

INPUT: # check: t1/2 < 2 h for CCN1CCN(c2ccc(/C(=C(/CCCO)c3ccccc3)c3ccc(C)cc3)cc2)CC1 [Compound 18j]
OUTPUT: n

INPUT: Dear colleague, could you confirm whether t1/2 of Cc1ccc(/C(=C(\CCCO)c2ccccc2)c2ccc(N3CCN(C(C)C)CC3)cc2)cc1 [Compound 18b] falls below 2 h? Thanks.
OUTPUT: n

INPUT: Is t1/2 of OCCC/C(=C(/c1ccc(C2CCN(C3CC3)CC2)cc1)c1cccc(O)c1)c1ccccc1 [Compound 22r] strictly below 2 h?
OUTPUT: y

INPUT: Please state whether t1/2 is below 2 h for Cc1ccc(/C(=C(\CCCO)c2ccccc2)c2ccc(N3CCN(C)CC3)cc2)cc1 [Compound 18f]
OUTPUT: n

INPUT: I wonder whether OCCC/C(=C(\c1ccc(O)cc1)c1ccc(C2CNC2)cc1)c1ccccc1 [Compound 20e] has t1/2 below 2 h. Can you tell?
OUTPUT: n

====

Items are presented alongside their recorded CYP inhibition (% of control) 2C9.
systemName: UniProt P11712
assaySummary: Cytochrome P450 activity inhibition, CYP2C9
Assay type: in vitro ADME
assayConditions: 10 μM, human liver microsomes, Diclofenac substrate

Please review the entries below; each comes with its answer.
CC(C)N1CCC(c2ccc(/C(=C(/CCCO)c3ccccc3)c3cccc(O)c3)cc2)CC1 [Compound 22m]	80.3 % of control
CC(C)N1CCN(c2ccc(/C(=C(/CCCO)c3ccccc3)c3ccc(Br)cc3)cc2)CC1 [Compound 18e]	91.3 % of control
CN1CCN(c2ccc(/C(=C(/CCCO)c3ccccc3)c3ccc(O)cc3)cc2)CC1 [Compound 18d]	67.7 % of control

Could you now look at the following compound, please?
CYP inhibition (% of control) 2C9 value, target or system UniProt P11712, for Nc1ccc(/C(=C(\CCCO)c2ccccc2)c2ccc(C3CCN(C4CC4)CC3)cc2)cc1 [Compound 26d] : 96.6 % of control

====

systemName: UniProtKB Q12809
assayConditions: read-out: hERG IC50; fluorescence polarization assay
measurementLabel: pIC50
For clarity, pIC50 is expressed as the negative log10 of concentration in mol/L.

CN1CCC[C@H]1COc1ccc(/C(=C(/CCCO)c2ccccc2)c2ccc(O)cc2)cc1	4.74
OCCC/C(=C(\c1ccc(O)cc1)c1ccc(N2CCN(C3CCCC3)CC2)cc1)c1ccccc1 [Compound 22n]	4.84
CN1CCN(c2ccc(/C(=C(/CCCO)c3ccccc3)c3ccc([N+](=O)[O-])cc3)cc2)CC1 [Compound 18c]	4.94
CN1CCCC1CCOc1ccc(/C(=C(/CCCO)c2ccccc2)c2ccc(O)cc2)cc1 (stereo not shown)	5.27
OCCC/C(=C(\c1ccc(O)cc1)c1ccc(C2=CCN(C3CC3)CC2)cc1)c1ccccc1 [Compound 22j]	5.06
OCCC/C(=C(\c1ccc(O)cc1)c1ccc(C2CN(C3CC3)C2)cc1)c1ccccc1 [Compound 22d]	5.22

// next item, pIC50 requested
Value of measured pIC50 for the entry CC(C)N1CCN(c2ccc(/C(=C(/CCCO)c3ccccc3)c3ccc([N+](=O)[O-])cc3)cc2)CC1 [Compound 18g] : 4.75

====

Item-by-item account of CYP inhibition (% of control) 2C9
systemName: CYP2C9 (Homo sapiens (Human), UniProt P11712)
Sequence (P11712 whole entry): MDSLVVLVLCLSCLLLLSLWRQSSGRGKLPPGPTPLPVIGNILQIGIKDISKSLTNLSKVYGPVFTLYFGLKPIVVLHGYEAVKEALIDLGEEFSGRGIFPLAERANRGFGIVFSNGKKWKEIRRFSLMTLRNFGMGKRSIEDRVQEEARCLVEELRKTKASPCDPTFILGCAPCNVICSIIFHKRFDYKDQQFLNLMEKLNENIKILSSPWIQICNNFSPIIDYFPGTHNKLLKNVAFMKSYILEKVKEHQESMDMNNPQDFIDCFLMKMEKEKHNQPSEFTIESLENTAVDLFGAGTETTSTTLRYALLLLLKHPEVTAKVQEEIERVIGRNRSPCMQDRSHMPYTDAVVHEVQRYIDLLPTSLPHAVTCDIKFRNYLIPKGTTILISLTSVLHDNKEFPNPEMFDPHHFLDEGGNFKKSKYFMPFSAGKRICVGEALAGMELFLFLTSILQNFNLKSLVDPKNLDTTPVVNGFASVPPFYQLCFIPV
assaySummary: Cytochrome P450 activity inhibition, CYP2C9
Type: in vitro ADME
assayConditions: 10 μM, human liver microsomes, Diclofenac substrate

CN1CCC(c2ccc(/C(=C(/CCCO)c3ccccc3)c3cccc(O)c3)cc2)CC1 [Compound 22ac]	>100 % of control

Per the reported CYP2C9 (Homo sapiens (Human), UniProt P11712) data, OCCC/C(=C(\c1ccc(O)cc1)c1ccc(OCCN2CCC[C@@H]2CO)cc1)c1ccccc1 [Compound 38c] has CYP inhibition (% of control) 2C9 of 55.3 % of control

Observed CYP inhibition (% of control) 2C9 on CYP2C9 (Homo sapiens (Human), UniProt P11712), entry CC(C)N1CCN(c2ccc(/C(=C(/CCCO)c3ccccc3)c3ccc(Br)cc3)cc2)CC1 [Compound 18h] , equals 96.9 % of control

Field CYP inhibition (% of control) 2C9 (CYP2C9 (Homo sapiens (Human), UniProt P11712)), entry Cc1ccc(/C(=C(\CCCO)c2ccccc2)c2ccc(C3CN(C(C)C)C3)cc2)cc1 [Compound 22e] : 61.3 % of control

The recorded CYP inhibition (% of control) 2C9 with CYP2C9 (Homo sapiens (Human), UniProt P11712) for CC(C)N1CCN(c2ccc(/C(=C(/CCCO)c3ccccc3)c3ccc(N)cc3)cc2)CC1 [Compound 26b] was 92.5 % of control

Entry Cc1ccc(/C(=C(\CCCO)c2ccccc2)c2ccc(N3CCN(C)CC3)cc2)cc1 [Compound 18f] under CYP2C9 (Homo sapiens (Human), UniProt P11712) had CYP inhibition (% of control) 2C9 of 62.3 % of control

====

assayConditions: 1 μM, 30 minutes, 37° C., NADPH
Each entry below lists one item and its recorded MS(Microsomal Stability) (%) mouse value.
Just the number please, in %, no unit attached.

In the examples that follow, each entry is paired with its recorded MS(Microsomal Stability) (%) mouse.
OCCC/C(=C(\c1ccc(O)cc1)c1ccc(C2=CCN(C3CC3)CC2)cc1)c1ccccc1 [Compound 22j]	34.9
OCCC/C(=C(\c1ccc(O)cc1)c1ccc(N2CCN(C3CCCCC3)CC2)cc1)c1ccccc1 [Compound 22p]	40.4
CC(C)N1CCC(c2ccc(/C(=C(/CCCO)c3ccccc3)c3ccc(O)cc3)cc2)CC1 [Compound 22g]	10.7
CC(=O)Nc1ccc(/C(=C(\CCCOC(C)=O)c2ccccc2)c2ccc(C3CCN(C4CC4)CC3)cc2)cc1 [Compound 27d]	17.6
OCCC/C(=C(\c1ccc(O)cc1)c1ccc(OCCN2C[C@H]3C[C@H]3[C@H]2CO)cc1)c1ccccc1 [Compound 38d]	11.8
CC(C)N1CCC(c2ccc(/C(=C(/CCCO)c3ccccc3)c3ccc(O)cc3)cc2)C1 (racemic) [Compound 22s]	21.7

// MS(Microsomal Stability) (%) mouse value for OCCC/C(=C(\c1ccc(O)cc1)c1ccc(N2CCN(C3CCC3)CC2)cc1)c1ccccc1 [Compound 22q] : 17.6

Summary for this compound, CCN1CCC(c2ccc(C(=C(CCCO)c3ccccc3)c3cccc(O)c3)cc2)CC1 [Compound 22ae] : MS(Microsomal Stability) (%) mouse is 21.5

Summary for this compound, CC(C)N1CCN(c2ccc(/C(=C(/CCCO)c3ccccc3)c3ccc(Br)cc3)cc2)CC1 [Compound 18h] : MS(Microsomal Stability) (%) mouse is 48.5
